Tested on: HCT-15 colon
Run Description: NCI tumour cell line growth inhibition, 48 h; in the data active = GI50 below about 0.43 µM; inactive = the rest
Outcome codes: True for active, False for inactive

Molecule	Class Assignment
COc1ccccc1Nc1ncc(-c2ccccc2)o1	False
Oc1ccc(Nc2c3ccccc3nc3occ(Cl)c23)cc1	False
COC(=O)c1cc2c(s1)-c1nccc3c1c(nc1ccccc13)C2=O	False
BrCc1cccc(C[P+](c2ccccc2)(c2ccccc2)c2ccccc2)c1	False
COc1ccc(-c2cc(/C=C/C(=O)c3ccc(OC)c(OC)c3)[nH]n2)cc1	False
Cc1ccc(Nc2oc(-c3ccccc3)nc2[P+](c2ccccc2)(c2ccccc2)c2ccccc2)cc1	False
CN(C)c1ccc(N=Nc2ccccn2)c(O)c1	True
O=[N+]([O-])c1cccc2ccc(N/N=C/c3ccccc3O)nc12	False
CC(C)=CCc1cc(O)cc2c1OC(C=C(C)C)C1=C2C(=O)C2=C(C1=O)S(=O)(=O)CCN2 (stereo not given)	False
COC(=O)c1ccc(-c2c(C#N)[n+](=O)c3cc(Cl)c(Cl)cc3n2[O-])cc1	False

###

System: SF-539 CNS
Run Description: NCI tumour cell line growth inhibition, 48 h
Readings of TGI for the listed molecules

Molecule	TGI (µM)
COc1ccc(C2=C(c3ccc(OC)cc3)C(=O)N3CCCC3C2)cc1 (stereo unspecified)	77.1
CC1(C)N=C(N)N=C(N)N1c1ccc(CCCCc2ccc(Cl)c(S(=O)(=O)F)c2)c(Cl)c1	13
CN(C)CCNC(=O)c1cccc2c(Nc3ccc(S(=O)(=O)N=C(N)N)cc3)c3ccccc3nc12	36.7
CSc1ccccc1C#C/C=C\C#Cc1ccccc1N	23.6
CN(C)C(=S)Sc1ccc([N+](=O)[O-])cc1[N+](=O)[O-]	14.6

###

Tested on: OVCAR-4 ovarian
Run Description: NCI tumour cell line growth inhibition, 48 h
Where a SMILES comes first, the peptide text is derived from it. The star is where a group is joined. Boc = CC(C)(C)OC(=O)*
Endpoint: TGI

Molecule	Readout Value
COc1cccc(C2c3cc4c(cc3OC(C)(N3CCCC3)C2C)OCO4)c1 (stereo unspecified)	75 µM
COC(=O)[C@@]1(C)/C(=N/NS(=O)(=O)c2ccc(C)cc2)CCC[C@@H]1C	> 100 µM
CN(C)CCNC(=O)c1cccc2c(Nc3ccc(S(=O)(=O)N=C(N)N)cc3)c3ccccc3nc12	30 µM
Cc1cc(C(F)(F)F)cc(-n2nc(NS(=O)(=O)c3cc(C)c(Cl)cc3S)nc2N)n1	> 100 µM
CNCCCn1c2ccccc2c2c3c(c(-c4ccsc4)cc21)C(=O)NC3=O	3.22 µM
CN(C)c1ncnc2c1ncn2CCn1cnc2c(N(C)C)ncnc21	> 100 µM
COC(=O)C1=CN(CC2=CC(=O)C(C)=CC2=O)C=C(C(=O)OC)C1c1cccc(OC)c1	> 100 µM
COc1ccc(OC)c(/C=C(/C#N)c2ccccc2)c1	81.5 µM
CC1CN=C(N(C(=O)Nc2ccc(Cl)c(Cl)c2)c2ccccc2)S1 (stereo unspecified)	> 100 µM
CCSC1=N/C(=C\c2ccc(N(C)C)cc2)C(Cl)=N1	> 100 µM
COc1ccc(-c2cc3ccccc3oc2=O)cc1OC	> 100 µM
CC1(Br)Cc2ccccc2C1=O (stereo unspecified)	8.43 µM
C=C1CC/C=C(\C)CCC[C@H](C)[C@@H](O)[C@@H]2OC(=O)C(=C)[C@@H]2C[C@H]1O	51.7 µM
[N-]=[N+]=CC(=O)OC1Cc2ccccc2C1	> 100 µM
COC(=O)C(C)NC(=O)C(CCSC)NC(=O)C(Cc1ccccc1)NC(=O)OC(C)(C)C (stereo not drawn) (Boc-Phe-Met-Ala-OMe; configuration not given here)	> 100 µM
Cc1cccc2c1Sc1ccccc1C2NC(=O)CCN(C)C (stereo unspecified)	> 100 µM
CC(Oc1ccc(Cl)cc1Cl)C(=O)NN1C(=O)CSC1c1ccccc1 (stereo unspecified)	> 100 µM
COc1ccc(/C(Cl)=C(\C=O)c2ccc(OC)cc2)cc1	> 100 µM
CCOC(=O)Cc1ccc(Nc2nc3ccccc3nc2C(=O)OCC)cc1	> 100 µM
CN(C)CCC(=O)C(=Cc1ccc(O)cc1)C(=O)CCN(C)C	> 100 µM
O=C1CCC/C=C\C[C@H]2C=CC(=O)/C2=C/C[C@H](C/C=C\CC(F)(F)F)O1	2.5 µM
